Record form. Attribute: inhibition. Fill in for each entry.
- tested.on: Prolyl endopeptidase-like (Homo sapiens)
- protocol: PREPL enzyme inhibitors, primary screen, biochemical, fluorescence polarization (AID 2751);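 also: 0% = enzyme with DMSO and 100% = wells lacking enzyme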
- recorded.conditions: recombinant PREPL, fluorescence polarization activity-based probe; at 5.96 µM; stronger effect = higher value
Hit rate of the full screen: of about 320,000 compounds, about 2,200 (0.69%) were called active. The sample as a whole holds a higher share of actives than the screen did.
Answers are plain numbers, in %.

A selection of reference data follows.
1. O=C(O)C1CSC(c2cccnc2)N1 (configuration not stated) :: 3.28
2. COc1ccccc1N1CCN(C(CNC(=O)Oc2ccccc2)c2cccnc2)CC1 (configuration not stated) :: 1.24

Could you report inhibition for every entry in the following list?
1. Cc1nc2ccccn2c1P(=S)(N1CCCCC1)N1CCCCC1
2. O=C(N/N=C/c1c(O)n(C2CC2)c(=S)[nH]c1=O)c1ccccc1Cl
3. CCOc1ccc(-c2cc(C)[n+](CCN(CC)CC)c(-c3ccc(OCC)cc3)c2)cc1
4. COc1ccc2[nH]c3c(c2c1)CCN[C@H]3C
5. COc1ccc(C2NCc3ccc4c(c3-n3cccc32)OCO4)cc1OC (configuration not stated)

[-7.5, -3.24, 10.9, 48.8, -15.2]

The reported measurements were obtained from PubChem BioAssay AID2751.
